- Tested on: α-glucosidase
- Assay details: α-Glucosidase inhibition
- Assay type: biochemical
- Applied conditions: PNPG, pH 6.8, 37 °C, 400 nm
Readout name: α-Glucosidase IC50 (µg/mL)
Give bare numbers, in µg/mL.

- Molecule: "O=C(C(=O)c1ccc(OC2O[C@H](CO)[C@@H](O)[C@H](O)[C@H]2O)cc1)c1ccccc1 (some centres unmarked) [Compound 22]"
  Tested on: "α-glucosidase"
  α-Glucosidase IC50 (µg/mL): 212.24
- Molecule: "O=C(C(=O)c1cccc(O)c1)c1cccc(O)c1 [Compound 11, 1,2-Bis(3-hydroxyphenyl)ethane-1,2-dione]"
  Tested on: "α-glucosidase"
  α-Glucosidase IC50 (µg/mL): 66.700

Below are 8 molecules. Give each one its α-Glucosidase IC50.
1. O=C(C(=O)c1cccc(O)c1)c1ccc(O)cc1 [Compound 12]
2. O=C(C(=O)c1ccc(O)cc1)c1ccccc1 [Compound 9]
3. O=C(C(=O)c1cccc(OC2O[C@H](CO)[C@@H](O)[C@H](O)[C@H]2O)c1)c1cccc(O)c1 (some centres unmarked) [Compound 24]
4. O=C(C(=O)c1cc(O)cc(O)c1)c1ccccc1 [Compound 10]
5. O=C(C(=O)c1cc(O)cc(O)c1)c1cc(O)cc(O)c1 [Compound 14]
6. O=C(c1ccc(O)cc1)C(O)c1ccccc1 (centres unmarked) [Compound 2]
7. O=C(c1cc(O)cc(O)c1)C(O)c1ccccc1 (centres unmarked) [Compound 3]
8. O=C(c1cc(OC2O[C@H](CO)[C@@H](O)[C@H](O)[C@H]2O)cc(OC2O[C@H](CO)[C@@H](O)[C@H](O)[C@H]2O)c1)C(O)c1cccc(OC2O[C@H](CO)[C@@H](O)[C@H](O)[C@H]2O)c1 (some centres unmarked) [Compound 20]

[54.69, 47.78, 58.90, 100.08, 87.10, 547.97, 812.10, 48.25]

Below are 3 molecules. Give each one its α-Glucosidase IC50.
1. O=C(c1ccc(OC2O[C@H](CO)[C@@H](O)[C@H](O)[C@H]2O)cc1)C(O)c1cccc(OC2O[C@H](CO)[C@@H](O)[C@H](O)[C@H]2O)c1 (some centres unmarked) [Compound 19]
2. O=C(c1cc(OC2O[C@H](CO)[C@@H](O)[C@H](O)[C@H]2O)cc(OC2O[C@H](CO)[C@@H](O)[C@H](O)[C@H]2O)c1)C(O)c1ccccc1 (some centres unmarked) [Compound 17]
3. O=C(c1cccc(O)c1)C(O)c1ccccc1 (centres unmarked) [Compound 1]

1. 124.94
2. 193.40
3. 58.16

---

What IC50 was measured for each of the following?
- Tested on: butyrylcholinesterase (Homo sapiens, UniProt P06276)
- Sequence (P06276 29-602): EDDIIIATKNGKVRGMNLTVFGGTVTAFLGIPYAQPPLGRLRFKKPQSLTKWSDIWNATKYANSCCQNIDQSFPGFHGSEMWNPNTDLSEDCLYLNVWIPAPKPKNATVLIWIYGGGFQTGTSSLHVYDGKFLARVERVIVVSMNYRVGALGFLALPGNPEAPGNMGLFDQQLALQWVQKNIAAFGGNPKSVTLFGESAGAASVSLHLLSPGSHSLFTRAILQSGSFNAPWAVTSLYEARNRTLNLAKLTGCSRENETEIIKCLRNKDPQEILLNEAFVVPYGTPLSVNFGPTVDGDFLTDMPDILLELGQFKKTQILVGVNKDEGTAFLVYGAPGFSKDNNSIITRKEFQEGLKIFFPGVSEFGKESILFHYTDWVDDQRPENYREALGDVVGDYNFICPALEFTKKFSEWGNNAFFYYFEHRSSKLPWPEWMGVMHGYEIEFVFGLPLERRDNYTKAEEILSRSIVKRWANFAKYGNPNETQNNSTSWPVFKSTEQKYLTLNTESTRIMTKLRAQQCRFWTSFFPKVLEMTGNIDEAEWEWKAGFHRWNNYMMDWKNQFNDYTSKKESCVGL
- Assay details: biochemical
- Applied conditions: Tris-HCl pH 8.0, 25 °C, 405 nm; read-out: BChE IC50 (converted)
One number for each entry, in µM.

- Compound: "O=C(c1cc(OC2O[C@H](CO)[C@@H](O)[C@H](O)[C@H]2O)cc(OC2O[C@H](CO)[C@@H](O)[C@H](O)[C@H]2O)c1)C(O)c1cccc(OC2O[C@H](CO)[C@@H](O)[C@H](O)[C@H]2O)c1 (stereo partly shown)"
  Tested on: "butyrylcholinesterase (Homo sapiens, UniProt P06276)"
  IC50 / µM: 254
- Compound: "O=C(c1ccc(O)cc1)C(O)c1ccccc1 (stereo not shown)"
  Tested on: "butyrylcholinesterase (Homo sapiens, UniProt P06276)"
  IC50 / µM: 323
- Compound: "O=C(C(=O)c1cccc(OC2O[C@H](CO)[C@@H](O)[C@H](O)[C@H]2O)c1)c1cccc(O)c1 (stereo partly shown)"
  Tested on: "butyrylcholinesterase (Homo sapiens, UniProt P06276)"
  IC50 / µM: 526
- Compound: "O=C(c1cccc(O)c1)C(O)c1cccc(O)c1 (stereo not shown)"
  Tested on: "butyrylcholinesterase (Homo sapiens, UniProt P06276)"
  IC50 / µM: 462
- Compound: "O=C(c1cccc(O)c1)C(O)c1ccccc1 (stereo not shown)"
  Tested on: "butyrylcholinesterase (Homo sapiens, UniProt P06276)"
  IC50 / µM: 1890

Below are 3 compounds. Give each one its IC50.
1. O=C(C(=O)c1cccc(O)c1)c1ccc(O)cc1
2. O=C(c1cc(O)cc(O)c1)C(O)c1ccccc1 (stereo not shown)
3. O=C(C(=O)c1cccc(O)c1)c1cccc(O)c1 [Compound 11, 1,2-Bis(3-hydroxyphenyl)ethane-1,2-dione]

1910
592
1400

---

- Test system: Bacillus cereus Roma709
- Assay details: MIC, microdilution, B. cereus
- Type: cell-based
- Applied conditions: Bacillus cereus, ROMA709, read-out: MIC Bc
Readout name: MIC (µg/mL)
Answers are plain numbers, in µg/mL.

- Molecule: "O=C(C(=O)c1cc(O)cc(O)c1)c1cc(O)cc(O)c1"
  Tested on: "Bacillus cereus Roma709"
  Readout name: "MIC"
  Value observed: 102

Below are 4 molecules. Give each one its MIC.
1. O=C(c1ccc(O)cc1)C(O)c1ccccc1 (stereo not drawn)
2. O=C(c1cccc(O)c1)C(O)c1ccccc1 (stereo not drawn)
3. O=C(c1cc(O)cc(O)c1)C(O)c1cc(O)cc(O)c1 (stereo not drawn)
4. O=C(C(=O)c1ccc(O)cc1)c1ccccc1

1030
1320
141
108

// returns reported MIC for input O=C(c1cc(O)cc(O)c1)C(O)c1ccccc1 (stereo not drawn)
207

---

What IC50 was measured for each of the following?
- Tested on: butyrylcholinesterase (Homo sapiens, UniProt P06276)
- Assay details: biochemical
- Applied conditions: Tris-HCl pH 8.0, 25 °C, 405 nm; read-out: BChE IC50 (converted)

For orientation, consider the following solved cases.
- Molecule: "O=C(c1cc(O)cc(O)c1)C(O)c1cc(O)cc(O)c1 (stereo not shown)"
  Tested on: "butyrylcholinesterase (Homo sapiens, UniProt P06276)"
  IC50: "> 3620 µM"
- Molecule: "O=C(C(=O)c1cccc(OC2O[C@H](CO)[C@@H](O)[C@H](O)[C@H]2O)c1)c1ccc(O)cc1 (stereo partly shown)"
  Tested on: "butyrylcholinesterase (Homo sapiens, UniProt P06276)"
  IC50: "331 µM"
- Molecule: "O=C(C(=O)c1cc(OC2O[C@H](CO)[C@@H](O)[C@H](O)[C@H]2O)cc(OC2O[C@H](CO)[C@@H](O)[C@H](O)[C@H]2O)c1)c1ccccc1 (stereo partly shown)"
  Tested on: "butyrylcholinesterase (Homo sapiens, UniProt P06276)"
  IC50: "> 1770 µM"
- Molecule: "O=C(C(=O)c1ccc(OC2O[C@H](CO)[C@@H](O)[C@H](O)[C@H]2O)cc1)c1ccccc1 (stereo partly shown)"
  Tested on: "butyrylcholinesterase (Homo sapiens, UniProt P06276)"
  IC50: "1360 µM"
- Molecule: "O=C(c1ccc(OC2O[C@H](CO)[C@@H](O)[C@H](O)[C@H]2O)cc1)C(O)c1ccccc1 (stereo partly shown)"
  Tested on: "butyrylcholinesterase (Homo sapiens, UniProt P06276)"
  IC50: "484 µM"
- Molecule: "O=C(C(=O)c1cc(O)cc(O)c1)c1cccc(O)c1"
  Tested on: "butyrylcholinesterase (Homo sapiens, UniProt P06276)"
  IC50: "> 3870 µM"

Pending molecule:
Lookup: IC50 / butyrylcholinesterase (Homo sapiens, UniProt P06276) / O=C(c1ccc(O)cc1)C(O)c1cccc(O)c1 (stereo not shown)
> 4090 µM

---

What MIC was measured for each of the following?
- Test system: Candida albicans ATCC60193
- Assay details: MIC, microdilution, C. albicans
- Format: cell-based
- Applied conditions: Candida albicans, ATCC60193; fungus; YEPD broth, 48 h, 36 °C; read-out: MIC Ca
Give bare numbers, in µg/mL.

- Compound: "O=C(c1cccc(OC2O[C@H](CO)[C@@H](O)[C@H](O)[C@H]2O)c1)C(O)c1ccccc1 (stereo partly shown) [Compound 15]"
  Tested on: "Candida albicans ATCC60193"
  MIC, µg/mL: 25
- Compound: "O=C(C(=O)c1cc(O)cc(O)c1)c1ccccc1 [Compound 10]"
  Tested on: "Candida albicans ATCC60193"
  MIC, µg/mL: 17
- Compound: "O=C(C(=O)c1ccc(O)cc1)c1ccccc1 [Compound 9]"
  Tested on: "Candida albicans ATCC60193"
  MIC, µg/mL: 108

Below are 5 compounds. Give each one its MIC.
1. O=C(c1cc(O)cc(O)c1)C(O)c1ccccc1 (stereo not shown) [Compound 3]
2. O=C(c1cc(O)cc(O)c1)C(O)c1cc(O)cc(O)c1 (stereo not shown) [Compound 7]
3. O=C(c1ccc(O)cc1)C(O)c1ccccc1 (stereo not shown) [Compound 2]
4. O=C(C(=O)c1cc(O)cc(O)c1)c1cc(O)cc(O)c1 [Compound 14]
5. O=C(c1cccc(O)c1)C(O)c1ccccc1 (stereo not shown) [Compound 1]

[414, 283, 516, 51, 330]
